- System: Rattus norvegicus
- Protocol details: Antiinflammatory activity in Wistar albino rat assessed as inhibition of carageenaan-induced paw edema at 45 mg/kg, po administered 1 hr prior to carageenaan-challenge measured at 3 hrs relative to control
- Type: functional
Decision: inhibition in vivo at 45 mg/kg >= 60% yields met, all other cases yield not met.

| Structure as smiles | Class assignment |
| --- | --- |
| COc1ccc2cc([C@H](C)C(=O)O)ccc2c1 | met |
| COc1ccc(C(=O)n2nc(C)c3nnc4cc(Cl)c(F)cc4c32)cc1 | met |
| Cc1ccc(C(=O)n2nc(C)c3nnc4cc(Cl)c(F)cc4c32)cc1 | met |
| Cc1nn(C(=O)c2ccc(Cl)cc2Cl)c2c1nnc1cc(Cl)c(F)cc12 | not met |
| Cc1nn(C(=O)COc2ccccc2)c2c1nnc1cc(Cl)c(F)cc12 | not met |
| Cc1nn(C(=O)c2ccc([N+](=O)[O-])cc2)c2c1nnc1cc(Cl)c(F)cc12 | not met |
| Cc1nn(C(=O)COc2ccc(Cl)cc2Cl)c2c1nnc1cc(Cl)c(F)cc12 | not met |
| COc1ccc(C(=O)n2nc(C)c3nnc4cc(Cl)c(F)cc4c32)cc1OC | met |
| Cc1nn(C(=O)c2ccc(Cl)cc2)c2c1nnc1cc(Cl)c(F)cc12 | not met |
| Cc1nn(C(=O)Cc2ccccc2)c2c1nnc1cc(Cl)c(F)cc12 | met |
| Cc1nn(C(=O)c2ccc(F)cc2)c2c1nnc1cc(Cl)c(F)cc12 | met |
| Cc1nn(C(=O)Cc2cccc3ccccc23)c2c1nnc1cc(Cl)c(F)cc12 | not met |
